- study target: HLA-C*04:01
- test details: thermal melting temperature (Tm) of peptide-HLA complex; higher = more thermostable pHLA complex
- test context: C1R-A*02:01
measured attribute: thermal melting temperature (°C)
Form entry: value (°C) — number only.

-- ask So what's the measured thermal melting temperature for this one? AWEERETIL
-- reply 57.8
